The reported measurements were obtained from patent US7713994B2.

- System: MCF-7
- assay.summary: Cytotoxicity assay (SRB), MCF-7
- Format: cell-based
- condition.notes: Homo sapiens, MCF7, 72 h, MCF-7 cells, 3 days, SRB; read-out: In Vitro Cellular Activity IC50 MCF-7
# if measured IC50 < 7 µM: class 1  # else: class 0

# compound, tgt, group
rows = [
    ("O=C1NC(=O)c2ccc(I)cc2/C1=C/Nc1ccc(N2CCC[C@H]2CO)c(F)c1 (stereo in doubt)", "MCF-7", "class 1"),
    ("O=C1NC(=O)c2ccc(-c3ccc[nH]3)cc2C1=CNc1ccc(CN2CCCC2)cc1", "MCF-7", "class 0"),
    ("COc1ccc(CNC=C2C(=O)NC(=O)c3ccc(-c4ccccc4)cc32)cc1O", "MCF-7", "class 0"),
    ("O=C1NCc2ccccc2C1=CNc1cccc(O)c1", "MCF-7", "class 0"),
    ("NS(=O)(=O)c1ccc(CNC=C2C(=O)NC(=O)c3ccc(C=CC4CCCCC4)cc32)cc1", "MCF-7", "class 0"),
    ("NS(=O)(=O)c1ccc(CNC=C2C(=O)NC(=O)c3ccc(-c4cccc(Cl)c4)cc32)cc1", "MCF-7", "class 0"),
    ("CN1CCN(c2cnc(N/C=C3\\C(=O)NC(=O)c4ccc(-c5ccoc5)cc43)cn2)CC1", "MCF-7", "class 1"),
    ("CN(C)CC1CCN(c2ccc(N/C=C3\\C(=O)NC(=O)c4ccc(I)cc43)cc2)CC1", "MCF-7", "class 0"),
    ("O=C1NC(=O)c2ccc(I)cc2/C1=C/NCc1cc(O)ccc1-c1ccco1", "MCF-7", "class 0"),
    ("CN1CCN(c2ccc(NC=C3C(=O)NC(=O)c4ccc(C=CC(O)CO)cc43)cc2)CC1 (centres unmarked)", "MCF-7", "class 0"),
    ("COc1ccc(-c2ccc3c(c2)C(=CNc2ccc(N4CCN(C)CC4)cc2)C(=O)NC3=O)cc1", "MCF-7", "class 1"),
    ("C=CCN1CCCC1c1ccc(N/C=C2\\C(=O)NC(=O)c3ccc(I)cc32)cc1 (centres unmarked)", "MCF-7", "class 0"),
    ("O=C1NC(=O)c2ccc(-c3ccc4ccccc4c3)cc2C1=CNCc1ccc(O)c(O)c1", "MCF-7", "class 0"),
    ("O=C1NC(=O)c2ccc(I)cc2/C1=C/NCc1ccc(NC(=O)c2ccco2)c(O)c1", "MCF-7", "class 0"),
    ("O=C1NC(=O)c2ccc(I)cc2/C1=C/Nc1ccc(N2CCNCC2)nc1", "MCF-7", "class 1"),
    ("CCCOc1cnc(CN/C=C2\\C(=O)NC(=O)c3ccc(C(C)(C)C)cc32)cc1O", "MCF-7", "class 1"),
]
